Data origin: patent US12516019B2

# test protocol: Foam height test, Standard Test Method for Foaming Properties of Surface-Active Agents (ASTM 1173-07)
# Type: physicochemical
# condition summary: 10 g/L (1.0 weight %), t = 4 min, 49° C.
assay metric: Foam height at time t = 4 (mm)

# molecule, assay metric, number
measured = [
    ("CCCCCCCCCCCCOC(=O)CCC[N+](C)(C)CCCS(=O)(=O)[O-] [Example 5]", "Foam height at time t = 4", 154),
    ("CCCCCCCCCCCCNC(=O)CCC[N+](C)(C)CC(O)CS(=O)(=O)[O-] (stereo not drawn) [Example 12]", "Foam height at time t = 4", 176),
    ("CCCCCCCCCCCCNC(=O)CCCC[N+](C)(C)CC(O)CS(=O)(=O)[O-] (stereo not drawn) [Example 21]", "Foam height at time t = 4", 170),
    ("CCCCCCCCCCCCOC(=O)CCCC[N+](C)(C)CC(O)CS(=O)(=O)[O-] (stereo not drawn) [Example 9]", "Foam height at time t = 4", 180),
    ("CCCCCCCCCCCCNC(=O)CCC[N+](C)(C)CCCS(=O)(=O)[O-] [Example 14]", "Foam height at time t = 4", 122),
    ("CCCCCCCCCCCCOC(=O)CCC[N+](C)(C)CC(O)CS(=O)(=O)[O-] (stereo not drawn) [Example 4]", "Foam height at time t = 4", 158),
]
